- measurementTarget: saT1R2b/R3 (Sparus aurata, UniProt A0A671TG56+A0A671VZB3)
- Sequence (A0A671TG56 20-821): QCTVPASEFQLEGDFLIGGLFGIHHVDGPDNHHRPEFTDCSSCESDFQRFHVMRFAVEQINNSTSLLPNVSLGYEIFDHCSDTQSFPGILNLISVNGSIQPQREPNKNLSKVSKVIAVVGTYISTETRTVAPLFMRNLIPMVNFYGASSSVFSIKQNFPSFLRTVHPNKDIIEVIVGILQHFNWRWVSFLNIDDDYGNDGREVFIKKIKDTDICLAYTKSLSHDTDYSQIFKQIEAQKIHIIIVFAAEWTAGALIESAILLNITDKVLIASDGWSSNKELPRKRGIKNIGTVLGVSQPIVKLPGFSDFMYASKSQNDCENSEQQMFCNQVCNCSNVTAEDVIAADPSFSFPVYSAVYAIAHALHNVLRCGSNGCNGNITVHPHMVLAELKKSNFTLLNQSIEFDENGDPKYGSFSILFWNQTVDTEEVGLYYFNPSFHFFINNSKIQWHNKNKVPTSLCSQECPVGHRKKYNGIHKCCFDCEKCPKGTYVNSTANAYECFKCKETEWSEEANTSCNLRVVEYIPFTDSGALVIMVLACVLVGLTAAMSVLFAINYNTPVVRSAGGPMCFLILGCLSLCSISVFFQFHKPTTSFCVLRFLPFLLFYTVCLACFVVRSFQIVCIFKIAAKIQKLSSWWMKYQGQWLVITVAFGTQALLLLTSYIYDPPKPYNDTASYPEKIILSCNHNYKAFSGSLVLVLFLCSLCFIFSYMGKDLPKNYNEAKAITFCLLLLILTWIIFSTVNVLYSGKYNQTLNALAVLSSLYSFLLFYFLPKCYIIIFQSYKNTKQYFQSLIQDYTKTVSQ
- Sequence (A0A671VZB3 24-860): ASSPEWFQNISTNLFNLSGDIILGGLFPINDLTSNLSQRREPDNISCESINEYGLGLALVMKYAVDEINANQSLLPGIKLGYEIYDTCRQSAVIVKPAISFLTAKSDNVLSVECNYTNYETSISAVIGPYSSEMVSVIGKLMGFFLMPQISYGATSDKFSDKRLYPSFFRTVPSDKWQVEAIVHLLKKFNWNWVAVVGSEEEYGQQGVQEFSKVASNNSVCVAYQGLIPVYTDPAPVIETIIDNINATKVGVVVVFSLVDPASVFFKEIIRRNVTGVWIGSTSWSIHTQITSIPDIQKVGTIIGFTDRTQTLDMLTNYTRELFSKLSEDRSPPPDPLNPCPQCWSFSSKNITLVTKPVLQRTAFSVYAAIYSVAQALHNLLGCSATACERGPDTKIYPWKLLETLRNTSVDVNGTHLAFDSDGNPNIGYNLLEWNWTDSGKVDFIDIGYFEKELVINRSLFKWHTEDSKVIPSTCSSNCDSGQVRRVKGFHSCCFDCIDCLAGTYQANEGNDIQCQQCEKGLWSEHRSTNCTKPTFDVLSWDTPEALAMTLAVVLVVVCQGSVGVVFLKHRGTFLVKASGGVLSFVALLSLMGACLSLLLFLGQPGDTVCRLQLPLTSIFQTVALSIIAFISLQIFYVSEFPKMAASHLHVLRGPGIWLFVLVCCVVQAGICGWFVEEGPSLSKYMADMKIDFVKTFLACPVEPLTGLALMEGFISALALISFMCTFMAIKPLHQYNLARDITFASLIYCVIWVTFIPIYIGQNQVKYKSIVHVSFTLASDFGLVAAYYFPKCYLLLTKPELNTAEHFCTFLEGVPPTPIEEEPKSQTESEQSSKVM
- runDescription: saT1R2b/R3 heterodimer transiently transfected in stable pGL3-NFAT-luc-HEK293 (Cl.3) cells, luciferase reporter
- Format: cell-based
- details: as molarity; decimal comma
endpointLabel: T1R2b/R3 [MSD] maximum stimulation dose

compoundString: N[C@@H](CO)C(=O)O
measurementTarget: saT1R2b/R3 (Sparus aurata, UniProt A0A671TG56+A0A671VZB3)
T1R2b/R3 [MSD] maximum stimulation dose: 1,00 × 10^-1 M
--
compoundString: N[C@@H](CS)C(=O)O
measurementTarget: saT1R2b/R3 (Sparus aurata, UniProt A0A671TG56+A0A671VZB3)
T1R2b/R3 [MSD] maximum stimulation dose: 1,00 × 10^-4 M
--
compoundString: N=C(N)NCCC[C@H](N)C(=O)O
measurementTarget: saT1R2b/R3 (Sparus aurata, UniProt A0A671TG56+A0A671VZB3)
T1R2b/R3 [MSD] maximum stimulation dose: 1,00 × 10^-5 M

Task item: Lab note: record T1R2b/R3 [MSD] maximum stimulation dose of CSCC[C@H](N)C(=O)O tested on saT1R2b/R3 (Sparus aurata, UniProt A0A671TG56+A0A671VZB3).
Reply: 1,00 × 10^-1 M

Task item: Output reported T1R2b/R3 [MSD] maximum stimulation dose of the compound N[C@@H](Cc1ccc(O)cc1)C(=O)O on saT1R2b/R3 (Sparus aurata, UniProt A0A671TG56+A0A671VZB3).
Reply: 1,00 × 10^-3 M

Task item: Lab note: record T1R2b/R3 [MSD] maximum stimulation dose of C[C@@H](O)[C@H](N)C(=O)O tested on saT1R2b/R3 (Sparus aurata, UniProt A0A671TG56+A0A671VZB3).
Reply: 1,00 × 10^-1 M

Task item: Report T1R2b/R3 [MSD] maximum stimulation dose under test system saT1R2b/R3 (Sparus aurata, UniProt A0A671TG56+A0A671VZB3) for CC[C@H](C)[C@H](N)C(=O)O .
Reply: 1,00 × 10^-1 M

Task item: Report T1R2b/R3 [MSD] maximum stimulation dose under test system saT1R2b/R3 (Sparus aurata, UniProt A0A671TG56+A0A671VZB3) for N[C@@H](CCC(=O)O)C(=O)O .
Reply: 1,00 × 10^-2 M

---

Parameter: T1R2b/R3 [MSD] maximum stimulation dose. Scope: all listed entries.
- measurementTarget: saT1R2b/R3 (Sparus aurata, UniProt A0A671TG56+A0A671VZB3)
- runDescription: saT1R2b/R3 heterodimer transiently transfected in stable pGL3-NFAT-luc-HEK293 (Cl.3) cells, luciferase reporter
- Format: cell-based
- details: as molarity; decimal comma

compoundString: CC(C)[C@H](N)C(=O)O
recordedValue: 1,00 × 10^-1 M

compoundString: C[C@H](N)C(=O)O
recordedValue: 1,00 × 10^-1 M

compoundString: N[C@@H](Cc1c[nH]c2ccccc12)C(=O)O
recordedValue: 1,00 × 10^-3 M

compoundString: NC(=O)C[C@H](N)C(=O)O
recordedValue: 1,00 × 10^-1 M

Task item: Output measured T1R2b/R3 [MSD] maximum stimulation dose for this item: N[C@@H](Cc1c[nH]cn1)C(=O)O
Reply: 1,00 × 10^-5 M

Task item: Please indicate T1R2b/R3 [MSD] maximum stimulation dose recorded for NC(=O)CC[C@H](N)C(=O)O
Reply: 1,00 × 10^-1 M

Task item: Look up and state reported T1R2b/R3 [MSD] maximum stimulation dose for NCCCC[C@H](N)C(=O)O
Reply: 1,00 × 10^-3 M

Task item: Provide measured T1R2b/R3 [MSD] maximum stimulation dose value, entry: O=C(O)[C@@H]1CCCN1
Reply: 1,00 × 10^-1 M

Task item: State its T1R2b/R3 [MSD] maximum stimulation dose for this molecule: CC(C)C[C@H](N)C(=O)O
Reply: 1,00 × 10^-1 M

Task item: Supply reported T1R2b/R3 [MSD] maximum stimulation dose belonging to this molecule: N[C@@H](Cc1ccccc1)C(=O)O
Reply: 1,00 × 10^-2 M

Task item: Note down T1R2b/R3 [MSD] maximum stimulation dose recorded for N[C@@H](CC(=O)O)C(=O)O
Reply: 1,00 × 10^-5 M

Task item: Give T1R2b/R3 [MSD] maximum stimulation dose for NCC(=O)O
Reply: 1,00 × 10^-1 M
